Test summary: NCI Yeast Anticancer Drug Screen. Data for the bub3 strain (AID 167)
Conditions: S. cerevisiae bub3 mutant strain, at 3.7 µM, hits give high values
Compounds without any hit were thinned out: in the full panel of roughly 79,000, 15% have a hit.
Property measured: growth inhibition (%)

[[record]]
compound = "C[Si](C)(C)Cc1ccccc1C(=O)O"
endpoint_value = 8

[[record]]
compound = "CNc1ccc2[nH]c3ccccc3c2c1"
endpoint_value = -7

[[record]]
compound = "CN(NC(=O)/C(=C/C=C/c1ccccc1)NC(=O)c1ccccc1)C1=C(Cl)C(=O)[N+](c2ccccc2)=CC1"
endpoint_value = 11

[[record]]
compound = "Cc1nc2ccccc2c(=O)n1NC(=O)c1ccc(CS)cc1"
endpoint_value = -6

[[record]]
compound = "Cc1c2ccncc2c(C)c2c1oc1ccccc12"
endpoint_value = 24

[[record]]
compound = "CCC1SC(=S)N(c2ccc(Cl)cc2)C1=O (stereo not given)"
endpoint_value = -10

[[record]]
compound = "Clc1ccc(C(c2ccc(Cl)cc2)N2CCNCC2)cc1"
endpoint_value = 3

[[record]]
compound = "CN(C)c1ccc(C(c2ccc(Cl)cc2)c2ccc(N(C)C)cc2)cc1"
endpoint_value = 98

[[record]]
compound = "Cc1ccc(Nc2n[nH]c(=S)s2)cc1C"
endpoint_value = 12

[[record]]
compound = "COc1ccc2nc(N/N=C/c3sccc3C)cc(C)c2c1"
endpoint_value = 14

